B1: Calcium-binding protein 2, residues 155 to 219; numbered along this chain, Q9NPB3 (parent)
chain: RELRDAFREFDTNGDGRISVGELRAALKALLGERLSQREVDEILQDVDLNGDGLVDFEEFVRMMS

Variants of: B1
experiment_notes: abundance fitness (aPCA) (normalised: wild type 0, dead -1); higher = more abundant; growth selection in yeast, the domain comes from the species named
measurement_context: Homo sapiens

# variant_descriptor, abundance fitness
records = [
    ("L35P", -0.02),
    ("G14V", -0.672),
    ("G32V", -0.429),
    ("A6R", 0.089),
    ("M64P", -0.555),
    ("Q37D", -0.351),
    ("L3D", -0.497),
    ("E22D", -0.49),
    ("L35D", 0.064),
    ("A25F", -0.093),
    ("E59A", -0.072),
    ("R62W", -0.102),
    ("R62V", -0.074),
    ("A29P", -0.497),
    ("G16F", -0.992),
    ("G51H", -0.071),
    ("E42S", -0.136),
    ("R8E", -0.004),
    ("L30S", -0.216),
    ("S19D", -0.059),
    ("E42I", -0.204),
    ("G51Y", -0.107),
    ("R1A", -0.114),
    ("M63H", 0.05),
    ("A26Y", -0.17),
    ("L31V", -0.048),
    ("K28D", 0.068),
    ("D46R", -0.493),
    ("L30K", 0.134),
    ("G21V", -0.061),
    ("L3M", 0.012),
    ("D48E", 0.131),
    ("G53L", -0.23),
    ("Q45E", -0.076),
    ("L44R", -0.178),
    ("A6D", -0.709),
    ("E59D", -0.405),
    ("S19V", -0.517),
    ("N50W", -0.627),
    ("I43V", 0.01),
    ("L31T", 0.074),
    ("D56L", -0.201),
    ("S36L", 0.025),
    ("Q37G", -0.072),
    ("L30V", -0.053),
    ("R1T", -0.007),
]

All values here come from the Human Domainome abundance scans (Beltran et al. 2025).
